Source listed as patent US12172995B2.

- system.name: human TLR8 (Homo sapiens)
- experiment.summary: TLR8 inhibition reporter assay (HEK-Blue SEAP)
- conditions: HEK-Blue cells overexpressing human TLR8, stimulated with R848 15.9 μM, 22 hour incubation
Entries and their IC50

query: Would you mind telling me what IC50 value was observed for Cc1cc(-c2cc3[nH]nc(C4CCN(C(=O)CCN(C)C)CC4)c3cc2C(C)C)cn2ncnc12 [Example 122] ?
result: 0.8 nM

---

- system.name: human TLR8 (Homo sapiens, UniProt Q9NR97)
- Sequence (Q9NR97 27-1041): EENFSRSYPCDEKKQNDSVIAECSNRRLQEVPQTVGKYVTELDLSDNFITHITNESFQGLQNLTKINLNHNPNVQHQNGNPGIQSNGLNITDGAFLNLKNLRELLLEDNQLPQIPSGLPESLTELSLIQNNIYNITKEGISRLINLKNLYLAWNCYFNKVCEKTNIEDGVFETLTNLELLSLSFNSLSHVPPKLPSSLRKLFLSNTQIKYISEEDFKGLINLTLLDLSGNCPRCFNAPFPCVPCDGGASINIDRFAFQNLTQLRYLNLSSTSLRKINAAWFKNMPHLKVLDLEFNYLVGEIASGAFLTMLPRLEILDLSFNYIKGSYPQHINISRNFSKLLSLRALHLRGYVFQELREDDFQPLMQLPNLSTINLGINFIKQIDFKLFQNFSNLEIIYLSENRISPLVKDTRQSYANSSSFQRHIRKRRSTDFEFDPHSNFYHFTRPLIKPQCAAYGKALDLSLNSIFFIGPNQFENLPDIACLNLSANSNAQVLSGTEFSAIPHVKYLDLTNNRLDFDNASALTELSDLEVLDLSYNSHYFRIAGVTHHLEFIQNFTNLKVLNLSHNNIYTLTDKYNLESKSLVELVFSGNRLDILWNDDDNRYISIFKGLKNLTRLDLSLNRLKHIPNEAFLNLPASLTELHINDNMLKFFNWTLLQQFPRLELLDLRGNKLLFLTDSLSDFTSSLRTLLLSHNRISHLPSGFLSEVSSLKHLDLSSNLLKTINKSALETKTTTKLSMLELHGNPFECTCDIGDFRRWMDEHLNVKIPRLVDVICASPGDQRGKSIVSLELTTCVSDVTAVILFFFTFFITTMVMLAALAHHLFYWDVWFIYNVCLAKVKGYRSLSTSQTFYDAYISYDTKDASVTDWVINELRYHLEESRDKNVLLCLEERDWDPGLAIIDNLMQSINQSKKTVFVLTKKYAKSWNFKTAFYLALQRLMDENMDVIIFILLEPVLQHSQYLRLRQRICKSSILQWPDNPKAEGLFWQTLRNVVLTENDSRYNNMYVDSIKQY
- experiment.summary: TLR8 inhibition reporter assay (HEK-Blue SEAP)
- conditions: HEK-Blue cells overexpressing human TLR8, stimulated with R848 15.9 μM, 22 hour incubation
- Text: TLR7/8/9 Inhibition Reporter Assays HEK-Blue™-cells (Invivogen) overexpressing human TLR7, TLR8 or TLR9 receptors were used for screening inhibitors of these receptors using an inducible SEAP (secreted embryonic alkaline phosphatase) reporter gene under the control of the IFN-β minimal promoter fused to five NF-κB and AP-1-binding sites. […]
For each record, check the reported IC50: if it is below 0.7 nM write true (1), else write false (0).

Use the examples below as a reference point.
- molecule: "Cc1cc2c(C3CCC(NCC(=O)N(C)C)CC3)n[nH]c2cc1-c1cc(C)c2ncnn2c1 (single isomer, unassigned) [Example 28]"
  label.class: "true (1)"
- molecule: "Cc1cc(-c2cc3[nH]nc(C4CCC(N5CC6(C5)CS(=O)(=O)C6)CC4)c3cc2C(C)C)cn2ncnc12 (single isomer, unassigned) [Example 143]"
  label.class: "false (0)"
- molecule: "Cc1cc2c(C3CCN(CC(C)(C)O)CC3)n[nH]c2cc1-c1cc(C)c2ncnn2c1"
  label.class: "false (0)"
- molecule: "Cc1cc(-c2cc(C)c3ncnn3c2)cc2[nH]nc(OC3CCN(C4CCOCC4)CC3)c12"
  label.class: "true (1)"
- molecule: "Cc1cc(-c2cc3[nH]nc(C4CCN(C(C)C)CC4)c3cc2C(C)C)cn2ncnc12"
  label.class: "true (1)"

We next turn to a different molecule, shown below.
query: Consider Cc1cc(-c2cc(C)c3ncnn3c2)cc2[nH]nc(C3CCCNC3)c12 (centres unmarked) . Does its IC50 lie strictly below 0.7 nM?
result: false (0)

---

- system.name: human TLR7 (Homo sapiens)
- Sequence (Q9NYK1 27-1049): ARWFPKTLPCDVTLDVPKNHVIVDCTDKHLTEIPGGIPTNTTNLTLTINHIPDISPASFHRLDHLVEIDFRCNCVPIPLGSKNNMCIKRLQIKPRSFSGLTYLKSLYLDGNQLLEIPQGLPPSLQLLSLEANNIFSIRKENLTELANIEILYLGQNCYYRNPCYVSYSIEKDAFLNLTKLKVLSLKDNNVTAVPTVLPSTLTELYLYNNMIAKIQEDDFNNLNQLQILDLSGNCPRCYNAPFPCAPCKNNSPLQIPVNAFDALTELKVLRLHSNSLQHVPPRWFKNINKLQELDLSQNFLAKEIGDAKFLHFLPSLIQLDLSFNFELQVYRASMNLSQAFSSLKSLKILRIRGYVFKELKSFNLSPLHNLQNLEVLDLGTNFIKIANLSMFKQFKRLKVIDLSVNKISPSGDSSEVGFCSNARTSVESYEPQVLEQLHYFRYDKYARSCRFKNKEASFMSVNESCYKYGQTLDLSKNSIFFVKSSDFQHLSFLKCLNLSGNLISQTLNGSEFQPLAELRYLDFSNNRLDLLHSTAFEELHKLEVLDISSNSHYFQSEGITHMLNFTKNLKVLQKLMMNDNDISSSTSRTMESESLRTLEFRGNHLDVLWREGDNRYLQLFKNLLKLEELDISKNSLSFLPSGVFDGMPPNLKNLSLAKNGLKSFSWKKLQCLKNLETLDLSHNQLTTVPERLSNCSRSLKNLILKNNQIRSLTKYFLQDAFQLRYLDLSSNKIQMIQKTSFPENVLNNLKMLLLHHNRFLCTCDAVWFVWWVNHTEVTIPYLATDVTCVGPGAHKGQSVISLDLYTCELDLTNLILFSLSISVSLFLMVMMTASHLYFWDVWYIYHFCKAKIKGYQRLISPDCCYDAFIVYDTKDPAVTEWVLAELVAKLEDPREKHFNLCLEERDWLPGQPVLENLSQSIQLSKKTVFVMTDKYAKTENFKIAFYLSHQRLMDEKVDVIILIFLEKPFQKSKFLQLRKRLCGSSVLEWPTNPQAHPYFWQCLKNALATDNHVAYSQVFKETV
- experiment.summary: TLR7 inhibition reporter assay (HEK-Blue SEAP)
- conditions: HEK-Blue cells overexpressing human TLR7, stimulated with gardiquimod 7.5 μM, 22 hour incubation
parameter.measured: log10 IC50 (log10 of the value in nM)
Values reflect log10 of reported IC50 (nM).

See these solved cases before continuing.
- compound: "Cc1cc(-c2cc(C)c3ncnn3c2)cc2[nH]nc(OC3CCC(NC4CC4)CC3)c12 (single isomer, unassigned) [Example 189]"
  system.name: "human TLR7 (Homo sapiens)"
  log10 IC50: 1.09
- compound: "Cc1cc2c(C3CNC3)n[nH]c2cc1-c1cc(C)c2ncnn2c1"
  system.name: "human TLR7 (Homo sapiens)"
  log10 IC50: 2.24
- compound: "Cc1cc2c(C3CCCNC3)n[nH]c2cc1-c1cn(C)c2ncccc12 (centres unmarked)"
  system.name: "human TLR7 (Homo sapiens)"
  log10 IC50: 1.36
- compound: "Cc1cc2c(C3CCNCC3)c[nH]c2cc1-c1cc(C)c2ncnn2c1"
  system.name: "human TLR7 (Homo sapiens)"
  log10 IC50: 0.61
- compound: "COc1cc2c(C3CCNCC3)n[nH]c2cc1-c1cc(C)c2ncnn2c1"
  system.name: "human TLR7 (Homo sapiens)"
  log10 IC50: 1.50
- compound: "Cc1cc(-c2cc3[nH]nc(C4CCC(NCCS(C)(=O)=O)CC4)c3cc2C(C)C)cn2ncnc12 (centres unmarked) [Example 126]"
  system.name: "human TLR7 (Homo sapiens)"
  log10 IC50: 0.04
- compound: "Cc1cc2c(C3CCCN(CC(=O)N(C)C)C3)n[nH]c2cc1-c1cc(C)c2ncnn2c1 (centres unmarked) [Example 53]"
  system.name: "human TLR7 (Homo sapiens)"
  log10 IC50: 1.65

query: Reported log10 IC50 for CCc1cc2c(C3CCN(CC#N)CC3)n[nH]c2cc1-c1cc(C)c2ncnn2c1 : what is it?
result: 0.84

---

- system.name: human TLR9 (Homo sapiens, UniProt Q9NR96)
- Sequence (Q9NR96 26-1032): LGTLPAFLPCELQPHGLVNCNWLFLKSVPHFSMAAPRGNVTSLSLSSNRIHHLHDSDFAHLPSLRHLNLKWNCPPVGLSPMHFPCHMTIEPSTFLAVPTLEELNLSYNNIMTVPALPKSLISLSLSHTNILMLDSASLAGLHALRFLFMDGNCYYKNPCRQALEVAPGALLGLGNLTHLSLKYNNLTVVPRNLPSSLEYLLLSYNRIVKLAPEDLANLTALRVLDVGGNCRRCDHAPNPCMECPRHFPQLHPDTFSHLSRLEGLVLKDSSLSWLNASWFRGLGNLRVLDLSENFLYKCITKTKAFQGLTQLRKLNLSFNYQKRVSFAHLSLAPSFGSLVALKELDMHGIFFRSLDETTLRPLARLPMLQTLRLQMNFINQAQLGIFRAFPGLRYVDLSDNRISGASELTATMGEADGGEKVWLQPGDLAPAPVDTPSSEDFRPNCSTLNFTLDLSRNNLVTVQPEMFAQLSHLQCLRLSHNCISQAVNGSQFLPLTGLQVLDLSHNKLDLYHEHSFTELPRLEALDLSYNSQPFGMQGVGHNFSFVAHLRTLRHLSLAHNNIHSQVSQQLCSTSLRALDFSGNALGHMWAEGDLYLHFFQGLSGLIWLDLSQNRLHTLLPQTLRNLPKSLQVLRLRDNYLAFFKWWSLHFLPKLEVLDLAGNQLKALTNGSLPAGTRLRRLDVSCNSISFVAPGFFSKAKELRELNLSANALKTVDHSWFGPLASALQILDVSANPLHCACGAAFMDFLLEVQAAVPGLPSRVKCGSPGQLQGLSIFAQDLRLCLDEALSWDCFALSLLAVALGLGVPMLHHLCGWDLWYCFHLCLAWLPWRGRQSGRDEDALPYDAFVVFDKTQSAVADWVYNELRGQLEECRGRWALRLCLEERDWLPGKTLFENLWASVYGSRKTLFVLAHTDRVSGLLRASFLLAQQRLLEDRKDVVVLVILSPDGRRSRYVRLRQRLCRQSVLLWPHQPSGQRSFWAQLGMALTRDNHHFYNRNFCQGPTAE
- experiment.summary: TLR9 inhibition reporter assay (HEK-Blue SEAP)
- conditions: HEK-Blue cells overexpressing human TLR9, stimulated with ODN2006 5 nM, 22 hour incubation
parameter.measured: pIC50
API: returns pIC50 as number; meaning -log10 of concentration in mol/L.

query: Entry under review: Cc1cc(-c2cc3[nH]nc(N4CCN(C(C)C)CC4)c3cc2C(C)C)cn2ncnc12 [Example 208] . Reported pIC50?
result: 4.93

query: Would you kindly share the measured pIC50 for CCc1cc2c(C3CCN(CC#N)CC3)n[nH]c2cc1-c1cc(C)c2ncnn2c1 [Example 104] ?
result: 4.87

query: So what does the record say about pIC50 for Cc1cc2c(C3CCC(N(C)C)CC3)n[nH]c2cc1-c1cc(C)c2ncnn2c1 (single isomer, unassigned) [Example 3] ?
result: 5.95

query: What pIC50 value was documented for this compound, Cc1cc2c(C3CCC(N(C)C)CC3)n[nH]c2cc1-c1cc(C)c2ncnn2c1 (single isomer, unassigned) [Example 4] ?
result: 5.55

query: Fill in: pIC50 of CCc1cc2c(C3CCN(CCC#N)CC3)n[nH]c2cc1-c1cc(C)c2ncnn2c1 [Example 106] is ___
result: 4.40

query: Recorded pIC50 for Cc1cc2c(C3CCC(NC4CC4)CC3)n[nH]c2cc1-c1cc(C)c2ncnn2c1 (stereo not shown) [Example 36] , please?
result: 5.48

query: Item Cc1cc(-c2cc3[nH]nc(C4CCC(N5CCC(C)(O)C5)CC4)c3cc2C(C)C)cn2ncnc12 (single isomer, unassigned) [Example 166] has what recorded pIC50?
result: 5.05

---

- system.name: human TLR8 (Homo sapiens)
- experiment.summary: TLR8 inhibition reporter assay (HEK-Blue SEAP)
- conditions: HEK-Blue cells overexpressing human TLR8, stimulated with R848 15.9 μM, 22 hour incubation
# strict inequality: IC50 < 0.9 nM yields yes (1), everything else yields no (0)

query: Find out if reported IC50 for Cc1cc(-c2cc3[nH]nc(C4CCC(N5CC(C)(C)C5)CC4)c3cc2C(C)C)cn2ncnc12 (single isomer, unassigned) [Example 137] is less than 0.9 nM
result: yes (1)

query: Please check: IC50 for CCOC1CN(C2CCC(c3n[nH]c4cc(-c5cc(C)c6ncnn6c5)c(C(C)C)cc34)CC2)C1 (single isomer, unassigned) [Example 150] , strictly under 0.9 nM or not?
result: yes (1)

query: Hi there! Is IC50 for Cc1cc(-c2cc(C)c3ncnn3c2)cc2[nH]nc(C3CCC(N(C)C)CC3)c12 (centres unmarked) [Example 80] below 0.9 nM, do you know?
result: no (0)

---

// pIC50 lookup, one value per entry
- system.name: human TLR8 (Homo sapiens)
- experiment.summary: TLR8 inhibition reporter assay (HEK-Blue SEAP)
- conditions: HEK-Blue cells overexpressing human TLR8, stimulated with R848 15.9 μM, 22 hour incubation
pIC50 is a log-scale quantity: -log10 of the concentration expressed in molar.

Consider the reported pIC50 for these compounds:
- compound: "Cc1cc(-c2cc3[nH]nc(C4CCC(N5CCC(F)C5)CC4)c3cc2C(C)C)cn2ncnc12 (stereo not shown) [Example 163]"
  recorded.measurement: 10.00
- compound: "Cc1cc2c(NC(=O)C3CCNCC3)n[nH]c2cc1-c1cc(C)c2ncnn2c1"
  recorded.measurement: 7.82
- compound: "Cc1cc(-c2cc3[nH]nc(C4CCC(N5CC(F)C5)CC4)c3cc2C(C)C)cn2ncnc12 (stereo not shown) [Example 151]"
  recorded.measurement: 9.22

We now examine a further compound.
query: # lookup: pIC50 of Cc1cc(-c2cc(C)c3ncnn3c2)cc2[nH]nc(OC3CCC(NCCS(C)(=O)=O)CC3)c12 (stereo not shown) [Example 188]
result: 8.64

---

- system.name: human TLR7 (Homo sapiens)
- experiment.summary: TLR7 inhibition reporter assay (HEK-Blue SEAP)
- conditions: HEK-Blue cells overexpressing human TLR7, stimulated with gardiquimod 7.5 μM, 22 hour incubation
pIC50: −log10 of the molar value.
Decide using pIC50: a value greater than or equal to 8 is y, a smaller one is n.

- compound: "Cc1cc2c(C3CCNC3)n[nH]c2cc1-c1cc(C)c2ncnn2c1 (stereo not shown)"
  system.name: "human TLR7 (Homo sapiens)"
  label.class: "n"
- compound: "Cc1cc(-c2cc(C)c3ncnn3c2)cc2[nH]nc(C3CCCN(C(=O)CN(C)C)C3)c12 (stereo not shown)"
  system.name: "human TLR7 (Homo sapiens)"
  label.class: "y"
- compound: "Cc1cc2c(C3CCNCC3)n[nH]c2cc1-c1cc(C)c(=O)n(C)c1"
  system.name: "human TLR7 (Homo sapiens)"
  label.class: "n"
- compound: "Cc1cc(-c2cc3[nH]nc(C4CCC(N5CC6(CCO6)C5)CC4)c3cc2C(C)C)cn2ncnc12 (stereo not shown) [Example 156]"
  system.name: "human TLR7 (Homo sapiens)"
  label.class: "y"
- compound: "COc1cc(-c2ccc3c(C(=O)NC4CCNCC4)c[nH]c3c2)cn2ncnc12"
  system.name: "human TLR7 (Homo sapiens)"
  label.class: "n"
- compound: "Cc1cc2c(C3CCCNC3)n[nH]c2cc1-c1cn2ncnc2c(C)c1C (stereo not shown)"
  system.name: "human TLR7 (Homo sapiens)"
  label.class: "n"
- compound: "CCOC1CN(C2CCC(c3n[nH]c4cc(-c5cc(C)c6ncnn6c5)c(C(C)C)cc34)CC2)C1 (single isomer, unassigned) [Example 149]"
  system.name: "human TLR7 (Homo sapiens)"
  label.class: "y"
- compound: "Cc1cc2c(C3CCCN(C4COC4)C3)n[nH]c2cc1-c1cc(C)c2ncnn2c1 (stereo not shown)"
  system.name: "human TLR7 (Homo sapiens)"
  label.class: "n"
- compound: "Cc1cc(-c2ccc3c(C4CCC(N(C)C)CC4)c[nH]c3c2)cn2ncnc12 (single isomer, unassigned) [Example 14]"
  system.name: "human TLR7 (Homo sapiens)"
  label.class: "n"
- compound: "Cc1cc(-c2cc3[nH]nc(C4CCC(N(C)C)CC4)c3cc2C(C)C)cn2ncnc12 (stereo not shown) [Example 115]"
  system.name: "human TLR7 (Homo sapiens)"
  label.class: "y"

query: Answer whether pIC50 of Cc1cc2c(NC(=O)C3CCNCC3)n[nH]c2cc1-c1cc(C)c2ncnn2c1 is greater than or equal to 8.
result: n
